# Test system: PC-3
# measurement-notes: Cytotoxicity against human PC-3 cells assessed as reduction in cell viability preincubated for 48 hrs and measured after 4 hrs by MTT assay
# Type: functional, cell-based
Form field: IC50 (one value per entry).

Answered examples (5):
>>> observed_result("NCCCCNc1nc(/C=C/c2ccc3c(c2)OCO3)nc2ccccc12")
"> 100 µM"
>>> observed_result("Clc1ccc2nc(/C=C/c3ccc4c(c3)OCO4)nc(NCCN3CCOCC3)c2c1")
"> 100 µM"
>>> observed_result("COc1ccc(/C=C/c2nc(NCCN(C)C)c3ccccc3n2)cc1OC")
"> 100 µM"
>>> observed_result("COc1ccc(/C=C/c2nc(NCCN3CCOCC3)c3ccccc3n2)cc1OC")
"> 100 µM"
>>> observed_result("CCN(CC)CCCNc1nc(/C=C/c2ccc(OC)c(OC)c2)nc2ccccc12")
"> 100 µM"

Measured IC50, COc1ccc(/C=C/c2nc(NCCN3CCOCC3)c3cc(Cl)ccc3n2)cc1OC : > 100 µM

Per the record, CCN(CC)CCCNc1nc(/C=C/c2ccc3c(c2)OCO3)nc2ccc(Cl)cc12 has IC50 of > 100 µM

###

Let's look at some molecules and their measured IC50.
# Test system: PC-3
# measurement-notes: Cytotoxicity against human PC-3 cells assessed as reduction in cell viability preincubated for 48 hrs and measured after 4 hrs by MTT assay
# Format: functional, cell-based

>>> observed_result("COc1ccc(/C=C/c2nc(NCCCCN)c3cc(Cl)ccc3n2)cc1OC")
"> 100 µM"
>>> observed_result("COc1ccc(/C=C/c2nc(NCCCN(C)C)c3ccccc3n2)cc1OC")
"> 100 µM"

# context switch: different molecule, same IC50
Measured IC50, CC(C)N(CCNc1nc(/C=C/c2ccc([N+](=O)[O-])cc2)nc2ccccc12)C(C)C : > 100 µM

Data provenance is ChEMBL document CHEMBL4680124.
